Molecular target: T1, RADIL, Q96JH8
T1 sequence (Q96JH8 971-1071, limits assumed, looked up): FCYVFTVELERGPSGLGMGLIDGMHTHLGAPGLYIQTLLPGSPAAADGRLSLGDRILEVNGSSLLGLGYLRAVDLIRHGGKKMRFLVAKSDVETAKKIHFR
Experiment: holdup assay
Design: key: below the threshold = too weak to quantify, mostly under pKd 3.1 to 4
Details: plain residues with an end cap or a label only (N-terminal biotin on a linker: ado-ado)
# pKd values compiled below
endpoint: pKd

RDPPAEWTRV [PTPN18, Q99952]
4
PPGKHLVTEV [KCNA7, Q96RP8]
4.52
TNSRHGETTV [FZD2, Q14332]
4
